- target: ZFPAp3 six-finger zinc finger protein (Sp1C framework) (artificial)
- Sequence (chain, as listed by the source): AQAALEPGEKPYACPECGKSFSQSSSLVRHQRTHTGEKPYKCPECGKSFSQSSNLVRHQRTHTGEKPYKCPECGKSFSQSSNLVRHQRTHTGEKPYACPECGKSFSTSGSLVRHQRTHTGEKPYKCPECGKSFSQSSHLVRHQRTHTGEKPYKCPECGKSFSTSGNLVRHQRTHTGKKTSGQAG
- experiment: EMSA; Zn Buffer A, 10% glycerol, 0.8% BSA, salmon sperm DNA, room temp
- measurementConditions: tags: MBP fusion (pMAL-C2), E. coli; label: 5'-biotin (ELISA); 32P (gel shift); hairpin
pKd: −log10 of the molar value.
assayMetric: pKd

# binder, measuredNumber
records = [
    ("Ap3 hairpin oligo (dsDNA) DNA: GGTTACTTCTTCAACTCCATCGGGTTTTCCCGATGGAGTTGAAGAAGTAACC", 8.64),
]
